These measurements were taken from the supplement of paper PMC10567573.

B1: FBXO34 (parent)
chain: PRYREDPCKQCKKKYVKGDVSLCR

Variants of: B1
Assay: protein stability index of a GFP-peptide fusion (GPS, HEK-293T) (PSI 1-6); higher = more stable;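 further: lentivirally expressed fusions sorted by FACS into six bins by GFP to DsRed ratio, PSI derived from sequencing read proportions per bin multiplied by bin number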
Conditions: c terminus: a fixed tail appended
experimental-readout: protein stability index
Please reply with the value in numeric form only.

Examples with their reported protein stability index follow.
[[record]]
variant_label = "G18M"
experimental_readout = "protein stability index"
measured_value = 2.18

[[record]]
variant_label = "R4G"
experimental_readout = "protein stability index"
measured_value = 3.25

[[record]]
variant_label = "Y15N"
experimental_readout = "protein stability index"
measured_value = 2.99

[[record]]
variant_label = "S21G"
experimental_readout = "protein stability index"
measured_value = 2.54

[[record]]
variant_label = "D19I"
experimental_readout = "protein stability index"
measured_value = 3.18

[[record]]
variant_label = "P7C"
experimental_readout = "protein stability index"
measured_value = 2.26


Ask: Request the reported protein stability index associated with D19T
Reply: 2.97

Ask: Reported protein stability index for Y15L : what is it?
Reply: 3.1

Ask: Reported protein stability index, variant K9I : ____
Reply: 2.16

Ask: Name the recorded protein stability index for K14I .
Reply: 2.19

Ask: Dear colleague, I am looking for the recorded protein stability index of the following variant: K17F
Reply: 2.04
